Tested on: Mus musculus
Protocol Details: Tested for PB (pentobarbital)-induced sleep effect expressed as percent control of sleeping time at a dosage (icv) of 2.0 uM concentration
Format: functional
Assign labels as follows, please: TRUE for Sleeping time (% of control) below 300%; FALSE for Sleeping time (% of control) equal to or exceeding 300%.

Molecule	Assay System	Assigned Class
CC(=O)OC[C@H]1O[C@@H](n2ccc(=O)n(Cc3ccccc3)c2=O)[C@H](OC(C)=O)[C@@H]1OC(C)=O	Mus musculus	TRUE
COC[C@H]1O[C@@H](n2ccc(=O)n(Cc3ccccc3)c2=O)[C@H](OC)[C@@H]1OC	Mus musculus	TRUE

API: the following record is the query input.
Enquiry: Does Cc1ccccc1Cn1c(=O)ccn(C2O[C@H](CO)[C@@H](O)[C@H]2O)c1=O (stereo partly specified) have Sleeping time (% of control) strictly under 300%?
Return: FALSE

###

Protocol Details: Partition coefficient is determined for the compound from its equilibrium concentrations in organic phase to that in aqueous buffer of pH 7.4
Assay type: ADME
Experimental Context: octanol/water
Test Readout: Partition coefficient
Lab note: record just the number, no unit beside it.

The following molecules have reported results that may help.
Molecule	Partition coefficient
O=c1[nH]c(=O)n(C2CCCO2)cc1F (stereo unspecified) [TEGAFUR]	0.35
COC[C@H]1O[C@@H](n2ccc(=O)[nH]c2=O)[C@H](OC)[C@@H]1OC	2.16
COC[C@H]1O[C@@H](n2ccc(=O)n(Cc3ccccc3)c2=O)[C@H](OC)[C@@H]1OC	64.45
O=c1ccn(C2O[C@H](CO)[C@@H](O)[C@H]2O)c(=O)n1Cc1ccccc1 (stereo partly specified)	2.16
CC(=O)OC[C@H]1O[C@@H](n2ccc(=O)n(Cc3ccccc3)c2=O)[C@H](OC(C)=O)[C@@H]1OC(C)=O	32.73

Please look at the following molecule next.
Enquiry: I am curious: what Partition coefficient value has been reported for O=c1c(F)cn(C2CCCO2)c(=O)n1Cc1ccccc1 (stereo unspecified) ?
Return: 23.94

###

Test system: Mus musculus
Protocol Details: Tested for PB (pentobarbital)-induced sleep effect expressed as percent control of sleeping time at a dosage (icv) of 2.0 uM concentration
Type: functional
Test Readout: Sleeping time (% of control) (%)
Respond with the bare value in %.

Worked set:
Molecule	Experimental Value
Cc1ccc(Cn2c(=O)ccn(C3O[C@H](CO)[C@@H](O)[C@H]3O)c2=O)cc1 (stereo partly drawn)	308
O=c1ccn(C2O[C@H](CO)[C@@H](O)[C@H]2O)c(=O)n1Cc1ccccc1 (stereo partly drawn)	292
O=c1[nH]c(=O)n(C2CCCO2)cc1F (stereo not drawn) [TEGAFUR]	139
CC(=O)OC[C@H]1O[C@@H](n2ccc(=O)[nH]c2=O)[C@H](OC(C)=O)[C@@H]1OC(C)=O [URIDINE TRIACETATE]	178
O=c1c(F)cn(C2CCCO2)c(=O)n1Cc1ccccc1 (stereo not drawn)	262
Cc1cccc(Cn2c(=O)ccn(C3O[C@H](CO)[C@@H](O)[C@H]3O)c2=O)c1 (stereo partly drawn)	326
CC(c1ccccc1)n1c(=O)ccn(C2O[C@H](CO)[C@@H](O)[C@H]2O)c1=O (stereo partly drawn)	231

Enquiry: Reported Sleeping time (% of control) for `O=c1ccn(Cc2ccccc2)c(=O)[nH]1` : what is it?
Return: 86

All figures here come from ChEMBL document CHEMBL1123562.
